Data origin, for the record: patent US20080234310A1

For each record, write down the corresponding % Ca to control.
# Test system: ion channels associated with glutamate receptors
# PROTOCOL TEXT: Glutamate-induced uptake of 45Ca into rat brain synaptosomes (calcium-blocking properties)
# Assay type: biochemical
# MEASUREMENT SETUP: glutamate-induced 45Ca uptake, K(43/21); compound 5 μM; 5 min at 30° C.
Numbers only, in %.

Give % Ca to control for each listed item.
1. CN1CCc2[nH]c3ccccc3c2C1
2. CN1CCc2[nH]c3ccc(Br)cc3c2C1.Cl
3. Cc1ccc2c(c1)c1c(n2CCc2ccc(C)nc2)CCN(C)C1.Cl.Cl

Solution:
[35.5, 30.0, 48.5]

* * *

# Tested on: ion channels associated with glutamate receptors
# PROTOCOL TEXT: Glutamate-induced uptake of 45Ca into rat brain synaptosomes (calcium-blocking properties)
# Assay type: biochemical
# MEASUREMENT SETUP: glutamate-induced 45Ca uptake, K(43/21); compound 5 μM; 5 min at 30° C.
Provide the reported % Ca to control of each item.
Numbers only, in %.

> print(dat)
                              smiles.record  observed.property  quantity.unit  numeric.result
1                  CCN1CCc2[nH]c3ccccc3c2C1    % Ca to control              %            36.5
2  Cc1ccc2c(c1)c1c(n2Cc2ccccc2)CCN(C)C1.Cl.Cl    % Ca to control              %            22.5

Moving on to another compound below.
Problem: Look at this compound and give its reported % Ca to control. c1ccc(CN2CCc3[nH]c4ccccc4c3C2)cc1
Solution: 28.5
